Ref: PubChem BioAssay

Form field: z-score (one value per entry).
- TEST NAME: DUSP6 inhibitors restoring Erk phosphorylation by chemical complementation, primary imaging in DUSP6-transfected HeLa (AID 609)
- RUN CONDITIONS: HeLa MKP-3 transfected, phospho-Erk imaging KS statistic; measured here: nuclear c-Myc green intensity z-score; at 10 µM; cells stimulated with TPA for 15 min
RECORDED METRIC: z-score

>  <COMPOUND>
CC(C)(C)C1=Nn2c(nnc2-c2ccco2)SC1

>  <RECORDED METRIC>
z-score

>  <REPORTED VALUE>
0.534

$$$$
>  <COMPOUND>
CCCOC(=O)CSC1=C(C#N)C(c2ccccc2OC)C(C#N)C(=O)N1 (stereo unspecified)

>  <RECORDED METRIC>
z-score

>  <REPORTED VALUE>
0.676

$$$$
>  <COMPOUND>
Cc1cc(/C=c2/sc3nc4ccccc4n3c2=O)c(C)n1-c1ccccn1

>  <RECORDED METRIC>
z-score

>  <REPORTED VALUE>
1.46

$$$$
>  <COMPOUND>
Cc1ccccc1N1C(=O)C2ON(c3ccccc3)C(c3ccncc3)C2C1=O (stereo unspecified)

>  <RECORDED METRIC>
z-score

>  <REPORTED VALUE>
-0.511

$$$$
>  <COMPOUND>
CC(C)OC(=O)C(C#N)c1nc2ccccc2nc1N1CCCC1 (stereo unspecified)

>  <RECORDED METRIC>
z-score

>  <REPORTED VALUE>
-1.34

$$$$
>  <COMPOUND>
O=C(O)CC1SC(=Nc2cccc(C(F)(F)F)c2)NC1=O (stereo unspecified)

>  <RECORDED METRIC>
z-score

>  <REPORTED VALUE>
1.56

$$$$
>  <COMPOUND>
Cc1sccc1C1C(C#N)=C(N)SC(N)=C1C#N

>  <RECORDED METRIC>
z-score

>  <REPORTED VALUE>
-0.636

$$$$
>  <COMPOUND>
COC(=O)c1ccc(Cn2cnc3c(sc4nc(N5CCOCC5)c5c(c43)CCCC5)c2=O)o1

>  <RECORDED METRIC>
z-score

>  <REPORTED VALUE>
0.953

$$$$
>  <COMPOUND>
CCC(NC(C)C)C(O)c1ccc(O)c2[nH]c(=O)ccc12 (stereo unspecified)

>  <RECORDED METRIC>
z-score

>  <REPORTED VALUE>
0.138

$$$$
>  <COMPOUND>
CCOC(=O)C1=C(c2ccccc2)NC(SCC(=O)Nc2ccccc2C)=C(C#N)C1c1ccco1 (stereo unspecified)

>  <RECORDED METRIC>
z-score

>  <REPORTED VALUE>
-0.317

$$$$
>  <COMPOUND>
O=C(c1ccc(=O)oc1)N1CCN(c2ccc(F)cc2)CC1

>  <RECORDED METRIC>
z-score

>  <REPORTED VALUE>
-0.0445

$$$$

----------
- TARGET OR SYSTEM: Dual specificity protein phosphatase 6 (Homo sapiens) (UniProt Q16828)
- Sequence (Q16828 whole entry, looked up): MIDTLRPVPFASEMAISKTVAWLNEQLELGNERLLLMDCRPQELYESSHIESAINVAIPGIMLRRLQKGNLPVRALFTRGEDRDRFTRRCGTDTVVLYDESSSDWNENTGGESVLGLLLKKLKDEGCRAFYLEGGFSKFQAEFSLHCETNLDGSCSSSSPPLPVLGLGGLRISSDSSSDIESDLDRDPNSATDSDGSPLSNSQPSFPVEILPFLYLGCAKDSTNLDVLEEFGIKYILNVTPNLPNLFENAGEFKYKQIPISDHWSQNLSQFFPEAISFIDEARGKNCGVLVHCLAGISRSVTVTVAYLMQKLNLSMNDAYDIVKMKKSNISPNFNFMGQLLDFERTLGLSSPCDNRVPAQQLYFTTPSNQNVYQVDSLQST
- TEST NAME: DUSP6 inhibitors restoring Erk phosphorylation by chemical complementation, primary imaging in DUSP6-transfected HeLa (AID 609);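 as to inhibition: phospho-Erk level distribution per well compared with pooled transfected vehicle control wells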
- RUN CONDITIONS: HeLa MKP-3 transfected, phospho-Erk imaging KS statistic; at 10 µM; stronger effect = higher value; cells stimulated with TPA for 15 min
The source made the active and inactive calls.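 How the source made its calls: active means compounds giving at least 50% inhibition in the cell-based MKP-3 phosphatase rescue imaging test; inactive means the rest.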
Form field: inhibition (one value per entry).

>  <COMPOUND>
COc1cccc(OC)c1-c1nn2c(-c3ccco3)nnc2s1

>  <inhibition>
10.1% (inactive)

$$$$
>  <COMPOUND>
COCCNC(=O)c1c(N)n(CCC2=CCCCC2)c2nc3ccccc3nc12

>  <inhibition>
20.2% (inactive)

$$$$
>  <COMPOUND>
O=C1CC(NCc2ccc3c(c2)OCO3)C(=O)N1Cc1ccc2c(c1)OCO2 (stereo unspecified)

>  <inhibition>
15.8% (inactive)

$$$$
>  <COMPOUND>
c1cc(-c2nnc3sc(C4CCCCC4)nn23)ccn1

>  <inhibition>
-7.86% (inactive)

$$$$
>  <COMPOUND>
CCCOc1ccc(Cc2nn[nH]n2)cc1

>  <inhibition>
-3.95% (inactive)

$$$$
>  <COMPOUND>
COC(=O)C(NC(C)=O)(Nc1ccc(Br)cc1)C(=O)OC

>  <inhibition>
18.2% (inactive)

$$$$

----------
- TARGET OR SYSTEM: Alpha-2C adrenergic receptor (Homo sapiens)
- TEST NAME: modulators of alpha2C/GIRK thallium flux, primary screen, cell-based, HEK293 alpha2C/GIRK1/2 (AID 624);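 also: slope of fluorescence ratio to pre-addition baseline per second over 15 to 24 s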
- RUN CONDITIONS: thallium flux BTC fluorescence, at 10 µM, actives lie on both sides
We'd kindly ask you to apply these slope classes: low range (below 0.005), mid range (0.005 to below 0.006), high range (0.006 or more)

>  <MOLECULE>
COc1cccc(/C(O)=C2\C(=O)C(=O)N(c3ccccn3)C2c2ccccc2OC)c1 (stereo unspecified)

>  <CLASS>
mid range

$$$$
>  <MOLECULE>
NC(N)=NC(N)=NCCc1ccccc1

>  <CLASS>
low range

$$$$
>  <MOLECULE>
CCOc1ccc(-n2c(SCc3ccc(C#N)cc3)nnc2-c2cccnc2)cc1

>  <CLASS>
low range

$$$$
>  <MOLECULE>
Cn1c(=O)c2c(nc(NCc3ccc4c(c3)OCO4)n2Cc2ccccc2F)n(C)c1=O

>  <CLASS>
high range

$$$$
>  <MOLECULE>
CCN1CCN(c2nc3c(C)cccn3c(=O)c2/C=C(\C#N)S(=O)(=O)c2ccc(C)cc2)CC1

>  <CLASS>
low range

$$$$
>  <MOLECULE>
Cn1c(=O)c2c(nc(OCc3cccnc3)n2Cc2ccccc2)n(C)c1=O

>  <CLASS>
low range

$$$$
>  <MOLECULE>
COc1ccc(NCc2cc3ccccc3[nH]c2=O)cc1

>  <CLASS>
high range

$$$$
>  <MOLECULE>
Cn1c(=O)c2c(nc(N3CCN(Cc4ccccc4)CC3)n2CC(=O)c2ccccc2)n(C)c1=O

>  <CLASS>
low range

$$$$
>  <MOLECULE>
Cc1ccsc1C1NC(=O)c2c(sc3c2CCCC3)N1 (stereo unspecified)

>  <CLASS>
mid range

$$$$
>  <MOLECULE>
Cc1cc(-c2cc(-c3ccc(Cl)cc3)nc(N)c2C#N)co1

>  <CLASS>
mid range

$$$$
>  <MOLECULE>
CSc1nnc(N(CCC#N)CCC#N)s1

>  <CLASS>
low range

$$$$
>  <MOLECULE>
OCCN(CCO)c1ncnc2c1sc1nc(N3CCOCC3)c3c(c12)CCCC3

>  <CLASS>
mid range

$$$$
>  <MOLECULE>
CC1CN(c2oc(-c3cccs3)nc2C#N)CC(C)O1 (stereo unspecified)

>  <CLASS>
high range

$$$$
>  <MOLECULE>
COc1ccc(C(=O)Cn2c(Br)nc3c2c(=O)n(C)c(=O)n3C)cc1OC

>  <CLASS>
mid range

$$$$
>  <MOLECULE>
C=CCOC(=O)C(C#N)c1nc2ccccc2nc1N1CCC(C(=O)OCC)CC1 (stereo unspecified)

>  <CLASS>
low range

$$$$
>  <MOLECULE>
CCOc1cccc(-c2nnc3sc(-c4cccs4)nn23)c1

>  <CLASS>
high range

$$$$
>  <MOLECULE>
COc1ccc(CCn2c(C)ccc2C)cc1OC

>  <CLASS>
low range

$$$$
>  <MOLECULE>
Cn1c(NCCN2CCCCC2)cc(=O)n(C)c1=O

>  <CLASS>
low range

$$$$
>  <MOLECULE>
Cn1c(=O)c2c(nc(Oc3ccc4c(c3)OCO4)n2Cc2ccc(F)cc2)n(C)c1=O

>  <CLASS>
high range

$$$$
>  <MOLECULE>
Cc1c(-c2cccs2)[n+](=O)c2c(n1[O-])CCCC2

>  <CLASS>
high range

$$$$
>  <MOLECULE>
Cc1ccc2[nH]c(CCN(C)C)c(CC#N)c2c1

>  <CLASS>
mid range

$$$$
>  <MOLECULE>
COc1nc(N(C)S(=O)(=O)c2ccc(C)cc2)nc(C)c1Cl

>  <CLASS>
low range

$$$$
>  <MOLECULE>
C=C1c2cc(OC)ccc2NC(=O)N1CC

>  <CLASS>
low range

$$$$
>  <MOLECULE>
c1ccc(Cc2nn[nH]n2)cc1

>  <CLASS>
high range

$$$$
>  <MOLECULE>
COC(=O)c1ccccc1N1C(=O)[C@@H]2C(c3ccc(Br)cc3)=NO[C@@H]2C1=O

>  <CLASS>
mid range

$$$$
>  <MOLECULE>
COc1ccc(C2=Nn3c(nnc3-c3ccccn3)SC2)cc1

>  <CLASS>
high range

$$$$
>  <MOLECULE>
COC(=O)COn1c(SCC(=O)OC)nc2ccccc2c1=O

>  <CLASS>
high range

$$$$
>  <MOLECULE>
Cc1cccc(OCc2nc(C)cc(=O)[nH]2)c1

>  <CLASS>
mid range

$$$$
>  <MOLECULE>
COc1ccc(-c2nn3c(C4CCCCC4)nnc3s2)cc1OC

>  <CLASS>
low range

$$$$
>  <MOLECULE>
CCOC(=O)CC1=C(C(=O)OCC)C(c2ccc(OC)c(OC)c2)C(C#N)=C(N)O1 (stereo unspecified)

>  <CLASS>
low range

$$$$
>  <MOLECULE>
CCOC(=O)c1c(SC)nc(SC)c2c1CCC2

>  <CLASS>
high range

$$$$
>  <MOLECULE>
COc1cccc(N2CCN(c3ncnc4c3[nH]c3ccc(F)cc34)CC2C)c1 (stereo unspecified)

>  <CLASS>
low range

$$$$
>  <MOLECULE>
Cc1ccc(N(Cc2cc3ccccc3[nH]c2=O)C(=O)c2ccco2)c(C)c1

>  <CLASS>
high range

$$$$
>  <MOLECULE>
CCOc1cc(CN2CCOCC2)cc(C(C)=O)c1

>  <CLASS>
mid range

$$$$
>  <MOLECULE>
CC1(C2(O)CC(c3ccccc3)ON2)CCCCC1 (stereo unspecified)

>  <CLASS>
mid range

$$$$
